B1: tRNA (parent)
chain: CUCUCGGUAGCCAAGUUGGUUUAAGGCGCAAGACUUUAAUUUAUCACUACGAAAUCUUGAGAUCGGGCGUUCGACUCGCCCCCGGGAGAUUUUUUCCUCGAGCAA

Variants of: B1
Protocol: nonsense suppression (GFP-seq) (ratio to wild type); higher = more function; SUP4oc tRNA, yeast GFP reporter sort-seq
Fewer inactive variants are shown than the library holds.
# Lookup of reported nonsense suppression keyed by entry

Record sequence	Bound type	nonsense suppression
CUCUCGGUAGCCAAGUUGGUUUAAGGCGCAGGACUUUAAUUUAUCACUACGAAAUCUUGAGAUCGGGCGUACAACUUGCCCCCGGGAGAUUUUUUCCUCGAGCAA [A31G U71A G73A C77U]	≤	0.026
CUCUCGGUAGACAAGCUGGUUUAAGGCGCAAGACUUUAAUUUAUCACUACGAAAUCUUGAGAUCGGGCGUUCGACUCGCCCCCGGGAGAUUUUUUCCUCGAGCAA [C11A U16C]	≤	0.026
CUCUCGGUAGCCAAGUUGGUUUAAGGCGCAAGACUUUAAUUUAUCACUACGAAAUCUUGACAUCGGGCGUUCGACUGGCCCCCGGGAGAUUUUUUCCUCGAGCAA [G61C C77G]	=	0.0296
CUCUCGGUUGCCAAGUUGGUUUAAGGCGCAAGACUUUAAUUUAUCACUACGAACUCUUGAGAUCGGGCGUUCGACUCGCCCCCGGGAGAUUUUUUCCUCGAGCAA [A9U A54C]	=	0.0503
CACUCGGUAGCCAAGUUGGUUUAAGGCGCAAGGCUUUAAUUUAUCACUACGAAAUCUUGAGAUCGGGCGUUCGACUCGCCCCCGGGAGAUUUUUUCCUCGAGCAA [U2A A33G]	≤	0.026
CUCUCGGUAGCCAAGUUGGUUUAAGGCGUAAGACUUUAAUUUAUCACUACGAAAUCUUGAGAUCGGGCGUUCGACACGCCCCCGGGAGAUUUUUUCCUCGAGCAA [C29U U76A]	=	0.224
CUCUCGGUAGCCUAGUUGGUAUAAGGCGCAAGACUUUAAUUUAUCACUACGAAAUCUUGAGAUCGGGCGUUCGACUCGCCCCCGGGAGAUUUUUUCCUCGAGCAA [A13U U21A]	=	0.803
CUCUCGGUAGCCAAGUUGGUUUAGGGCGCAAGACUUUAAUUUAUCACUACGAAAUCUUGAGAUCGGGCGUUCGACUCGCCCCCGGGGGAUUUUUUCCUCGAGCAA [A24G A87G]	=	0.0583
CUCUCGGUAGCCAAGUUGGUUUAAGGCGCAAGACUUUAAUUUAUCACUACGAAAUCUUGAGAUCGGGCGUUCGACUCACCCCCAGGAGAUUUUUUCCUCGAGCAA [G78A G84A]	=	0.459
CUCUCGGUAGCCAAGUUAGUUUAAGGCGCAAGACUUUAAUUUAUCACUACGAAAACUAGAGAUCGGGCGUUCGACUCGCCCCCGGGAGAUUUUUUCCUCGAGCAA [G18A U55A U58A]	≤	0.026
CUCUCGGUAGCCAAGUUGGUUUAAGGCGCAAGACUUUAAUUUAUCACUACGAAAUCUUCAGAUCGUGCGUUCGACUCGCCCCAGGGCGAUUUUUUCCUCGAGCAA [G59C G66U C83A A87C]	≤	0.026
CUCUCGGUAGCCAAGUUCGUUUAAGGCGCAAGACUUUAAUUUAUCACUACGAACUCUUGAGAUCGGGCGUUCGACUCGCCCCCUGGAGAUUUUUUCCUCGAGCAA [G18C A54C G84U]	≤	0.026
CUCCCGGUCGCCAAGUUGGUUUAAGGCGCAAGACUUUAAUUUAUCACUACGAAAUCUUGAGAUCGGGCGUUCGACUCGCCCCCGGGAGAUUUUUUCCUCGAGCAA [U4C A9C]	=	1.02
CCCUCGGUAGCCAAGUUGGUUUAAGGCGCAGGACUUUAAUUUAUCACUACGAAAUCUUGAGAUCGGGCGUUCGACUCGCCCCCGGGAGAUUUUUUCCUCGAGCAA [U2C A31G]	=	0.0356
CUCUCGGUAGCCAAGUUGGUUUAAGGCGCAAGACUUUAAUUUAUCACUACGAAUUCUUGAGAGCGGGCGUUCGACUCGCCCCCGGGAGAUUUUUUCCUCGAGCAA [A54U U63G]	=	0.659
CUCUCGGUAGACAAGUUGGUUUAAGCCGCAAGACUUUAAUUUAUCACUACGAAAUCUUGAGAUCGUGCGUUCGACUCGCCCCCGGGAGAUUUUUUCCUCGAGCAA [C11A G26C G66U]	≤	0.026
CUCUCGGUAGCCAAGUUGGUUUAAGGCGCAAGACUUUAAUUUAUCACUACGAAAUCUUGAGAUCGGGCGUUCGACUCGCCCCCGGCAGAUUUUUUCCUCGAGCAA [G86C]	≤	0.026
CUCUCGGUAGCCAAGUUGGUUUAAGACGCAAGACUUUAAUUUAUCACUACGAAAUCUUGAGAUCGGGCGUGCGACUCGCCCCCGGGAGAUUUUUUCCUCGAGCAA [G26A U71G]	≤	0.026
CUCUCGGUAGCCUAAUUGGUUUAAGGCGCAAGACUUUAAUUUAUCACUACGAAAUCUUGAGAUCGGGCGUUCGACUCGCCCCCGGGAGAUUUUUUCCUCGAGCAA [A13U G15A]	=	0.046
CUCUCGGUAGGCAAGUUGGUUUAAGGCGCAAGACUUUAAUUUAUCACUACGAAAUCUUAAGAUAGGGCGUUCGACUCGCCCCCGGGAGAUUUUUUCCUCGAGCAA [C11G G59A C64A]	≤	0.026
CUCUCGGUAGCCAAGUUGGUUUGAGGCGUAAGACUUUAAUUUAUCACUACGAAAUCUUGAGAUCGGGCGUUCGACUCGCCCCCGGGAGAUUUUUUCCUCGAGCAA [A23G C29U]	=	0.142
CUCUCGGGAGCCAAGUUGGUUUAAGGCGCAAGACUUUAAUUUAUCACUACGAAAUCUUGGGAUCGGGCGUUCGACUCGCCCCCGGGAGAUUUUUUCCUCGAGCAA [U8G A60G]	≤	0.026
